For each of the sequences below, state its shrunken log2 fold change.
System: Escherichia coli TOP10;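 note: peptides expressed intracellularly from a pBAD plasmid library in pooled LB shake-flask culture, induced with 0.3% L-arabinose, DNA abundance read by NGS, three biological replicates, DESeq2 with apeglm shrinkage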
procedure-text: shrunken log2 fold change of peptide-encoding DNA abundance (4.5 h post-induction vs induction); higher = less antimicrobial activity (less host growth inhibition)
experimental-setup: time post-induction: 4.5 h; library: site-saturation at positions 5, 18, 19, 20
Numbers only.

Study these solved cases before continuing.
RRIRDRPPRLPRPRPRPESCPRP : 0.629
RRIRHRPPRLPRPRPRPYFFPRP : -0.485
RRIRTRPPRLPRPRPRPKMQPRP : 0.384
RRIRPRPPRLPRPRPRPYIKPRP : -0.939
RRIRWRPPRLPRPRPRPAIFPRP : 0.327
RRIRNRPPRLPRPRPRPTIHPRP : -0.46
RRIRKRPPRLPRPRPRPSKMPRP : 0.025
RRIRWRPPRLPRPRPRPTSQPRP : 0.229
RRIRYRPPRLPRPRPRPRECPRP : -0.154
RRIRKRPPRLPRPRPRPTVHPRP : 0.467

Give shrunken log2 fold change for all sequences that follow.
1. RRIRLRPPRLPRPRPRPMAYPRP
2. RRIRCRPPRLPRPRPRPGSCPRP
3. RRIRCRPPRLPRPRPRPHGTPRP
4. RRIRNRPPRLPRPRPRPLDYPRP
5. RRIRCRPPRLPRPRPRPMSGPRP
6. RRIRRRPPRLPRPRPRPEYMPRP
7. RRIRVRPPRLPRPRPRPKHFPRP
8. RRIRERPPRLPRPRPRPSKPPRP

# output
-0.0987
-0.0844
-0.0488
-0.309
0.198
0.0765
0.0968
0.0303

Working through the 4 sequences below one at a time, give shrunken log2 fold change for each.
1. RRIRPRPPRLPRPRPRPHQSPRP
2. RRIRYRPPRLPRPRPRPDQIPRP
3. RRIRQRPPRLPRPRPRPHRAPRP
4. RRIRWRPPRLPRPRPRPEPVPRP

# output
0.238
0.0304
-0.137
-0.0131

Each of the following entries comes with a recorded value; kindly state shrunken log2 fold change for each.
1. RRIRMRPPRLPRPRPRPEWDPRP
2. RRIRERPPRLPRPRPRPVGPPRP
3. RRIRIRPPRLPRPRPRPQDAPRP
4. RRIRGRPPRLPRPRPRPYHWPRP
5. RRIRFRPPRLPRPRPRPCGVPRP
6. RRIRQRPPRLPRPRPRPIYCPRP

# output
1: 3.48; 2: -0.0231; 3: -0.449; 4: -0.407; 5: 0.0327; 6: -0.0315
